targetOrTestSystem: BTK (Homo sapiens (Human), UniProt Q06187)
Sequence (Q06187 whole entry, species assumed): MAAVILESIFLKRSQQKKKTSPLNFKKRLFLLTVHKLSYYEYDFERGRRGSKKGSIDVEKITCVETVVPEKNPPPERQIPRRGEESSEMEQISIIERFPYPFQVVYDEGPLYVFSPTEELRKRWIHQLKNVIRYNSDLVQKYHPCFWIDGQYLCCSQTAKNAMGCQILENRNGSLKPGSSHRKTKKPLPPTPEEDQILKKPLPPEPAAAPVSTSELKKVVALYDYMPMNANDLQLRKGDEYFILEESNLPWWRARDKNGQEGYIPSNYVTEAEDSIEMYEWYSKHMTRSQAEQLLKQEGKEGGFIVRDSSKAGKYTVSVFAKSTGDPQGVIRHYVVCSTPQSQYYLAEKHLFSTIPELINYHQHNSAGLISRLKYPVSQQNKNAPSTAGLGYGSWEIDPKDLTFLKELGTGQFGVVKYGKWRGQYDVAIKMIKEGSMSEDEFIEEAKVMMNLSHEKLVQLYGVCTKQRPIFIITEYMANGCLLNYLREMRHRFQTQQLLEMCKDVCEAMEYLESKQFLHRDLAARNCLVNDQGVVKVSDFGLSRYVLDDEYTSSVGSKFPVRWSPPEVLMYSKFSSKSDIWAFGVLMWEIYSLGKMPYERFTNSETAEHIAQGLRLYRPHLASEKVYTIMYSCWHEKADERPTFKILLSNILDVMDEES
testDescription: Btk kinase assay (HTRF)
Format: biochemical
measurementConditions: [ATP]=80 μM, BTK=3.4 nM; read-out: BTK Inhibition
measuredMetric: IC50

Sample answers from the record:
molecule	measuredMetric	measuredResult
C=CC(=O)Nc1cccc(-n2c(=O)n(-c3ccc(OCc4ccccn4)cc3)c3cnccc32)c1 [Example 196]	IC50	100 to 1000 nM
C=CC(=O)Nc1cccc(-n2c(=O)n(-c3ccc(OCc4c(F)cccc4F)cc3)c3cnccc32)c1 [Example 226]	IC50	100 to 1000 nM
C=CC(=O)N1CCC[C@@H](n2c(=O)n(-c3ccc(Oc4cccc(C)c4)c(F)c3)c3cnccc32)C1 [Example 105]	IC50	10 to 100 nM
C=CC(=O)N1CCC[C@@H](n2c(=O)n(-c3ccc(Oc4cccc(F)c4)cc3)c3cnccc32)C1 [Example 117]	IC50	10 to 100 nM
C=CC(=O)N1CC[C@@H](n2c(=O)n(-c3ccc(Oc4cccc(C)c4OC)cc3)c3cnccc32)C1 [Example 67]	IC50	10 to 100 nM

For every record below, what is its IC50?
1. CC#CC(=O)N1CC[C@@H](n2c(=O)n(-c3ccc(Oc4cccc(OC)c4F)cc3)c3cncc(C)c32)C1 [Example 173]
2. O=C(/C=C/c1ccccc1)Nc1cccc(-n2c(=O)n(-c3ccc(Oc4ccccc4)cc3)c3cnccc32)c1 [Example 109]

Output:
1. 10 to 100 nM
2. ≥ 10000 nM

Cited source for all entries: patent US10358446B2
